Tested on: NCI-H522 lung
assayOverview: NCI tumour cell line growth inhibition, 48 h
Collected TGI values appear next to each entry.
property: TGI (µM)

compound	prefixOperator	reading
O=C(Oc1cccc2cccnc12)c1cc2c(cc1Cl)SC(N(c1ccc(F)cc1)S(=O)(=O)c1ccc(Br)s1)=NS2(=O)=O	=	48.3
C=C1C(=O)O[C@H]2C/C(C)=C/CC[C@@]3(C)O[C@](C)(CC[C@@H]3I)[C@@H](I)C[C@@H]12	=	8.64
Cc1nc([P+](c2ccccc2)(c2ccccc2)c2ccccc2)c(Sc2sc(-c3ccccc3)nc2[P+](c2ccccc2)(c2ccccc2)c2ccccc2)o1	=	6.15
S=c1[nH]nc(CNc2ccc(-c3n[nH]c(=S)n3-c3ccc(Cl)cc3)cc2)n1-c1ccc(Cl)cc1	=	48.5
O=C1CSCc2sccc21	>	100
CCc1n[nH]c(=O)n1/N=C/c1ccccc1O	>	100
c1ccc2c(Cc3[nH]c4ccccc4c3Cc3c[nH]c4ccccc34)c[nH]c2c1	=	3.76
CCN(Cc1ccc(C)cc1)c1ccc(CO)c(Cl)c1	=	25.7
OCCN1CCN(CCCN2c3ccccc3Sc3ccc(Cl)cc32)CC1	=	3.13
CC(C)(CN1CCCCC1)C(=O)/C=C/c1ccc(/C=C/C(=O)C(C)(C)CN2CCCCC2)cc1	=	0.167
COc1ccc(C2=C(Cl)c3cc(OC)c(OC)cc3C2OC)cc1OC (configuration not stated)	>	100
CCCCNC(=O)c1cc2c(cc1Cl)Sc1nccn1S2(=O)=O	>	100
C/C(=N\NC(=S)N1CCCCC1)c1ccccn1	=	1.51
Cn1c(=O)[nH]c2nncnc2c1=O	>	516
Cn1cnc([N+](=O)[O-])c1Sc1nc(N)nc2c1ncn2C1OC(CO)C(O)C1O (configuration not stated)	=	33.5
N#Cc1cccc2c1Nc1ccccc1S2	>	100
CC(=O)Nc1c(S(=O)(=O)c2ccccc2)c(C)c(C)n1CCN(C)C	>	100
CC(=O)O[C@H]1C(=O)[C@@]2(C)[C@H]([C@H](OC(=O)c3cccc([N+](=O)[O-])c3)[C@]3(O)C[C@H](OC(=O)[C@H](O)[C@@H](NC(=O)c4ccccc4)c4ccccc4)C(C)=C1C3(C)C)[C@]1(OC(C)=O)CO[C@@H]1C[C@@H]2O	=	0.0161
O=S(=O)(NCCCNc1nccc(-c2c(-c3ccc(O)cc3)nc3sccn23)n1)c1ccc(F)cc1	=	6.27
O=C(CSc1nc2ccc([N+](=O)[O-])cc2s1)c1ccc2ccccc2c1	>	100
COc1ccc2c(c1OC)C[C@@H]1c3c(cc4c(c3-2)OCO4)CCN1C	=	62.9
OCc1cn(C(c2ccccc2)(c2ccccc2)c2ccccc2)cn1	>	100
O=c1ccc2nc3cc(Br)ccc3sc-2c1	>	100
C=C=C(CC1CCCCC1=O)S(=O)(=O)c1ccccc1 (configuration not stated)	=	6.71
O=C(CC(=O)N1N=C(N2CCCCC2)CC1c1ccccc1)Nc1ccccc1 (configuration not stated)	>	100
CC[C@H](C)[C@H]1NC(=O)[C@@H](NC(=O)[C@@H](CC(C)C)N(C)C(=O)C2CCCN2C(=O)[C@H](C)O)[C@@H](C)OC(=O)[C@H](Cc2ccc(OC)cc2)N(C)C(=O)[C@@H]2CCCN2C(=O)[C@H](CCCCNC(=O)OCc2ccccc2)NC(=O)[C@H](C)C(=O)[C@H](C(C)C)OC(=O)C[C@@H]1O (some centres not stated)	>	25
COc1cc(/C=C\c2cc(OC)c(OC)c(OC)c2)cc(N/C=C\C(=O)c2ccc(OC(F)(F)F)cc2)c1OC	=	6.19
COC(=O)C(Cc1cc(OC)c(OC)c(OC)c1)C(=O)OC	>	320
Cc1cn([C@@H]2C[C@@H]2CO)c(=O)[nH]c1=O	>	100
COc1cc(C2Cc3ncccc3-c3[nH]c(=O)c4cccnc4c32)cc(OC)c1OC (configuration not stated)	=	0.635
N.N.N.N.N.[Co+3].[I-].[N-]=[N+]=[N-]	>	100
Fc1cccc(COc2ccc(Nc3ncnc4sc(-c5cccs5)cc34)cc2Cl)c1	>	22.4
CCSCC1CC(O)(c2ccccc2)CC(c2ccc(F)cc2)O1 (configuration not stated)	=	5.88
CCOc1cc(C2SCC(=O)N2c2ccc(Oc3ccc(Cl)cc3)c(Cl)c2)ccc1O (configuration not stated)	=	28.1
CCN(CCCN(C)C)Cc1cc(I)cc(C)c1O	=	36.4
CCOC(=O)C(/C(=N/S(=O)(=O)c1cc(C)c(Cl)cc1[S-])[n+]1ccc(N(C)C)cc1)=C(/O)c1ccc([N+](=O)[O-])cc1	=	34.6
CC(C)(C)OC(=O)NC(CCCCNC(=O)OCc1ccccc1)C(=O)NCCNc1ccc(NCCNC(=O)C(CCCCNC(=O)OCc2ccccc2)NC(=O)OC(C)(C)C)c2c1C(=O)c1ccccc1C2=O (configuration not stated)	=	93.3

* * *

System: BT-549 breast
assayOverview: NCI tumour cell line growth inhibition, 48 h
property: TGI (µM)

compound	prefixOperator	reading
CC[C@H](C)[C@H]1NC(=O)[C@@H](NC(=O)[C@@H](CC(C)C)N(C)C(=O)C2CCCN2C(=O)[C@H](C)O)[C@@H](C)OC(=O)[C@H](Cc2ccc(OC)cc2)N(C)C(=O)[C@@H]2CCCN2C(=O)[C@H](CCCCNC(=O)OCc2ccccc2)NC(=O)[C@H](C)C(=O)[C@H](C(C)C)OC(=O)C[C@@H]1O (some centres not stated)	>	25
Cc1c(N2C(=O)/C(=C/c3ccc(Cl)cc3)N=C2c2ccccc2)c(=O)n(-c2ccccc2)n1C	>	100
O=C1C[C@H](c2ccccc2)O[C@@H](c2ccccc2)C1	>	100
CCOC(=O)/C(=C/N1CCN(C(=O)c2ccco2)C1=S)C(=O)c1ccccc1	=	25
COc1ccc(C2=N[C@@H](Cc3ccccc3)C(=O)Nc3ccsc32)cc1	=	28.5
Oc1ccc(O)c(CNc2ccc(C(O)C(F)(F)F)cc2)c1 (configuration not stated)	=	28.2
CC#CC(O)(C(=O)OCCCN(C)C)C1CCCCC1 (configuration not stated)	>	100

* * *

System: K-562 leukemia
assayOverview: NCI tumour cell line growth inhibition, 48 h; in the data active = GI50 below about 0.43 µM; inactive = the rest
Labels: active, inactive

> print(dat)
                                   compound  assignedcategory
1            C/C(=N\NC(=S)N1CCCCC1)c1ccccn1            active
2  CCSCC1CC(O)(c2ccccc2)CC(c2ccc(F)cc2)O1 (centres undefined)          inactive
3  O=S(=O)(NCCCNc1nccc(-c2c(-c3ccc(O)cc3)nc3sccn23)n1)c1ccc(F)cc1          inactive
4                 O=c1[nH]c2ccccc2c2ccccc12          inactive

* * *

Tested on: TK-10 renal
assayOverview: NCI tumour cell line growth inhibition, 48 h
Listed molecules paired with reported log10 TGI
property: log10 TGI (log10 of the value in µM)

> print(dat)
                                   molecule  reading
1  O=C(O[C@@H](/C=C/c1ccccc1)P1(=O)N(Cc2ccccc2)[C@H]2CCCC[C@@H]2N1Cc1ccccc1)c1ccccc1     1.57
2            C/C(=N\NC(=S)N1CCCCC1)c1ccccn1     0.62
3  COc1ccc(C2CC(c3cccc(Nc4ccnc5cc(Cl)ccc45)c3)=NN2C=O)cc1 (stereo unspecified)     0.90
4  CC(N)C(Cc1ccc(Cl)cc1)c1ccc(Cl)cc1 (stereo unspecified)     1.42
5  Cc1c(N2C(=O)/C(=C/c3ccc(Cl)cc3)N=C2c2ccccc2)c(=O)n(-c2ccccc2)n1C     1.78

* * *

System: NCI-H460 lung
assayOverview: NCI tumour cell line growth inhibition, 48 h
Reported TGI values are given for each entry in this list.

molecule	TGI
CCN1C(=S)N(c2ccccc2)C2NC(=S)N(/N=C/C=C/c3ccccc3OC)C21 (stereo not drawn)	> 100 µM
CN(C)C=Nc1ccn(CCO)c(=O)n1	> 100 µM
COc1ccc(C(=O)C2=NON3OC23C(=O)c2ccc(OC)cc2)cc1 (stereo not drawn)	40 µM
CC(C)C1=CC(=O)C(C)(C2C(O)CC3(C)C4CC=C5C(CCC(OC6OC(CO)C(O)C(O)C6OC6OC(C)C(O)C(O)C6O)C5(C)C)C4(C)C(=O)CC23C)O1 (stereo not drawn)	> 100 µM
Cn1c2c(c3ccccc31)CCN(CCCCN1CCCCC1)C2=O	> 100 µM
CN(C)c1ccc(C=Nc2ccc(Oc3ccc(Cl)cc3)c(Cl)c2)cc1	42.1 µM
Cn1cc(C(=O)c2ccccc2)c2ccccc2c1=O	> 100 µM
CCOC(=O)c1c[nH]c2c(Sc3ccccc3)nccc2c1=O	> 100 µM
C=C=C(CC1CCCCC1=O)S(=O)(=O)c1ccccc1 (stereo not drawn)	> 10 µM
O=c1cc(N=Nc2ccc(Br)cc2)[nH]c(=S)[nH]1	> 100 µM
OCCN1CCN(CCCN2c3ccccc3Sc3ccc(Cl)cc32)CC1	4.22 µM
C[N+]1(CCC(=O)c2ccco2)CC2CCC(CC2)C1 (stereo not drawn)	> 100 µM
C=CCN(c1cc(OCc2ccccc2)c2[nH]cc(C)c2c1)S(C)(=O)=O	> 100 µM
Nc1ncnc2c1ncn2[C@]1(CO)C=C(CO)C(O)C1O (stereo partly drawn)	> 100 µM
Cc1cc(S(=O)(=O)Nc2n[nH]c(Nc3ccc(Cl)cc3)n2)c(S)cc1Cl	> 100 µM
O=c1[nH]c2ccccc2c2ccccc12	> 100 µM
Nc1ncnc2c1sc1nc3ccccc3n12	> 100 µM
O=C(O)CN1C=C(C(=O)c2cc3ccccc3n2S(=O)(=O)c2ccccc2)CCC1	> 100 µM
COC(=O)/C=C1\C(=O)N(C(C)=O)c2ccc(Br)cc21	30.4 µM
Nc1ccc2c(O)cc(=O)[nH]c2n1	> 100 µM
COc1ccc2c(c1OC)C[C@@H]1c3c(cc4c(c3-2)OCO4)CCN1C	91.4 µM
C/C(=N\NC(=S)N1CCCCC1)c1ccccn1	1.5 µM
O=c1[nH]c(Nc2ccc(Cl)c(C(F)(F)F)c2)nc2nc[nH]c12	> 100 µM
